assayComment: pharmacokinetic profile in third molar extraction study
Type: in vivo
cond: human; plasma, 1000 mg single dose, male subjects
readout: half-life

Provide measured half-life value, entry: Cc1cc(C(=O)Nc2ccc(O)cc2)n[nH]1 [Compound 1] ~600 min
